Data provenance is the supplement of paper PMC10065799.

Here the recorded phosphorylation enrichment is given for each entry.
System tested: Fyn (UniProt P06241)
Sequence (P06241 whole entry, looked up): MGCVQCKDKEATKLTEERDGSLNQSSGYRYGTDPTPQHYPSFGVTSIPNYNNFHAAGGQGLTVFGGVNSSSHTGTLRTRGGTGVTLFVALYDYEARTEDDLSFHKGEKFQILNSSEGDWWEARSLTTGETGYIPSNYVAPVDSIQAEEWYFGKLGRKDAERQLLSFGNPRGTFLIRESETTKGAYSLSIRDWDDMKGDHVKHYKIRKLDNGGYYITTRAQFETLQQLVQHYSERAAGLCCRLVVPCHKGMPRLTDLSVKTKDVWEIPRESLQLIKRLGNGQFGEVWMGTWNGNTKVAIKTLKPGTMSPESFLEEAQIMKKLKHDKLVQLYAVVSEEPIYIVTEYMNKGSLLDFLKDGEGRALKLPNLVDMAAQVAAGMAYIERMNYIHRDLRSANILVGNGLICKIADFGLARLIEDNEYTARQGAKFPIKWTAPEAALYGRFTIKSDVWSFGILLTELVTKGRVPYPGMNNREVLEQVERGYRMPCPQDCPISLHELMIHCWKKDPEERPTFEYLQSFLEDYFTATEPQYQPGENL
Protocol details: phosphorylation enrichment, bacterial display (enrichment ratio); higher = better substrate or ligand; peptides without Tyr show the background;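 further: 11-residue human phosphosite peptides and single-mutation variants displayed on the E. coli surface, counted by deep sequencing, each peptide's frequency after selection divided by its frequency in the unselected input library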;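 further: frequency after pTyr selection over input frequency; kinase dosed for 20-30% of maximal phosphorylation in three min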
# print the numeric value only

Seq: KNDSNYVVKGN [KIT_Y823]
System tested: Fyn (UniProt P06241)
phosphorylation enrichment: 0.37

Seq: ANVIRYFPTQA [SLC25A4_Y81]
System tested: Fyn (UniProt P06241)
phosphorylation enrichment: 0.585

Seq: IKGIRYLHHRG [GUCY2D_Y656]
System tested: Fyn (UniProt P06241)
phosphorylation enrichment: 0.415

Please report the recorded phosphorylation enrichment for YRAPGYREVVI [TNS2_Y673] .
0.474

What about KPPFSYNALIR [FOXG1_Y186_M191R] ?
0.482
